Value source: patent US20100311729A1

target: PI3K beta (Homo sapiens, UniProt P42338); construct: for the full-length p110-b subunit are generated and fused by overlapping PCR; His tag (C); Tn5 (Trichoplusia ni) or TiniPro insect cells; experiment: PI3 kinase assay (Kinase-Glo luminescence), PI3K beta; settings: Enzymatic Data; read-out: PI3K beta IC50 [umol]
Sequence (P42338 with tags, fused parts or gaps limits assumed): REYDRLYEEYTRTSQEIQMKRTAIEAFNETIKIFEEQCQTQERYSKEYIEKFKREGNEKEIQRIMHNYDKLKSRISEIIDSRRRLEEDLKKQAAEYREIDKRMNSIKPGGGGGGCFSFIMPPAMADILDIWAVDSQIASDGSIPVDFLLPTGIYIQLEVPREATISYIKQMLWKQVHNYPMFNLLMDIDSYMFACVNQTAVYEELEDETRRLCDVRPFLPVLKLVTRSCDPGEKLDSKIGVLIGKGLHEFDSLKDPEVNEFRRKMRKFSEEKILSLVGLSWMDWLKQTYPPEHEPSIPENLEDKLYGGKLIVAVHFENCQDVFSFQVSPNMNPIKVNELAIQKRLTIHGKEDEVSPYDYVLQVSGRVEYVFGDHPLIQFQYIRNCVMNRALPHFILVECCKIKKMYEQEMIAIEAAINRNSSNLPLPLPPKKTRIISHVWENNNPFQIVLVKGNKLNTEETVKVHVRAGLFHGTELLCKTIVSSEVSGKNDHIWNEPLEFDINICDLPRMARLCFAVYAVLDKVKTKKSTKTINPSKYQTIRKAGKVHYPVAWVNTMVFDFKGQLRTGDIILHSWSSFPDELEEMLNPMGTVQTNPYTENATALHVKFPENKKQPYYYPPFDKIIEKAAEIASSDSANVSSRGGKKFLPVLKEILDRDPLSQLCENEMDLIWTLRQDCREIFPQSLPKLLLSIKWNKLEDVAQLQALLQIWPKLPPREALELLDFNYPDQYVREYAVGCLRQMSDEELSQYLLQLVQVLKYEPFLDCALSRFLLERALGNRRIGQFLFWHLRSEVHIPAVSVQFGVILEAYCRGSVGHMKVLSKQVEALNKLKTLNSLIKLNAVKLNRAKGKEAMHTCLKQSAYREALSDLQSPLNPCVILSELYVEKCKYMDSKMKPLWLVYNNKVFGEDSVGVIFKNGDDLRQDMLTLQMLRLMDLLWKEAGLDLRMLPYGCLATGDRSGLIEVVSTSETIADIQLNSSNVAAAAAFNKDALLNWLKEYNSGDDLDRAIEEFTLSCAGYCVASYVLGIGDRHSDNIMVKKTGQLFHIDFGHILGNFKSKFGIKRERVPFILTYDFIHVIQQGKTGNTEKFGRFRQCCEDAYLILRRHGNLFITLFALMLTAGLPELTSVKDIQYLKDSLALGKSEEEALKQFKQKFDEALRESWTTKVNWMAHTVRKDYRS
RESULT TYPE: pIC50
# log scale: pIC50 equals minus log10 of the concentration in mol/L

Here are 6 compounds together with their reported answers.
{"COMPOUND": "Nc1ncc(-c2ccc3ncc(-c4ccc(C(=O)NCCCN5CCOCC5)cc4F)n3n2)cc1C(F)(F)F", "RESULT VALUE": 7.40}
{"COMPOUND": "Nc1ncc(-c2ccc3ncc(-c4ccc5c(cnn5CCN5CCOCC5)c4)n3n2)cc1C(F)(F)F", "RESULT VALUE": 6.95}
{"COMPOUND": "Nc1ncc(-c2ccc3ncc(-c4ccc(C(=O)N5CCN(Cc6ccccn6)CC5)c(F)c4)n3n2)cc1C(F)(F)F", "RESULT VALUE": 6.77}
{"COMPOUND": "NCCCOc1ccc(-c2ccc3ncc(-c4cnc(N)c(C(F)(F)F)c4)n3n2)cc1", "RESULT VALUE": 6.74}
{"COMPOUND": "Nc1ncc(-c2cnc3ccc(-c4ccc(OC5CCNCC5)cc4)nn23)cc1C(F)(F)F", "RESULT VALUE": 6.45}
{"COMPOUND": "CC(C)C(=O)NCCOc1ccc(-c2ccc3ncc(-c4cnc(N)c(C(F)(F)F)c4)n3n2)cc1", "RESULT VALUE": 6.15}

Switching to the query record.
# query: pIC50 of entry `Nc1ncc(-c2ccc3ncc(-c4ccc(CN5CCC(C(=O)N6CCCC6)CC5)cc4)n3n2)cc1C(F)(F)F` 6.74

###

Reported log10(IC50) is given for each of the following molecules.
biological target: PI3K alfa (Homo sapiens); construct: for the p110-a subunit (with a deletion of the first 20 amino acids); His tag (C); made in house; host or cells: baculovirus; Tn5 (Trichoplusia ni) or TiniPro insect cells; assay: PI3 kinase assay (Kinase-Glo luminescence), PI3K alfa; format: biochemical; details: Enzymatic Data; read-out: PI3K alfa IC50 [umol]
Sequence (P42336 with tags, fused parts or gaps limits assumed): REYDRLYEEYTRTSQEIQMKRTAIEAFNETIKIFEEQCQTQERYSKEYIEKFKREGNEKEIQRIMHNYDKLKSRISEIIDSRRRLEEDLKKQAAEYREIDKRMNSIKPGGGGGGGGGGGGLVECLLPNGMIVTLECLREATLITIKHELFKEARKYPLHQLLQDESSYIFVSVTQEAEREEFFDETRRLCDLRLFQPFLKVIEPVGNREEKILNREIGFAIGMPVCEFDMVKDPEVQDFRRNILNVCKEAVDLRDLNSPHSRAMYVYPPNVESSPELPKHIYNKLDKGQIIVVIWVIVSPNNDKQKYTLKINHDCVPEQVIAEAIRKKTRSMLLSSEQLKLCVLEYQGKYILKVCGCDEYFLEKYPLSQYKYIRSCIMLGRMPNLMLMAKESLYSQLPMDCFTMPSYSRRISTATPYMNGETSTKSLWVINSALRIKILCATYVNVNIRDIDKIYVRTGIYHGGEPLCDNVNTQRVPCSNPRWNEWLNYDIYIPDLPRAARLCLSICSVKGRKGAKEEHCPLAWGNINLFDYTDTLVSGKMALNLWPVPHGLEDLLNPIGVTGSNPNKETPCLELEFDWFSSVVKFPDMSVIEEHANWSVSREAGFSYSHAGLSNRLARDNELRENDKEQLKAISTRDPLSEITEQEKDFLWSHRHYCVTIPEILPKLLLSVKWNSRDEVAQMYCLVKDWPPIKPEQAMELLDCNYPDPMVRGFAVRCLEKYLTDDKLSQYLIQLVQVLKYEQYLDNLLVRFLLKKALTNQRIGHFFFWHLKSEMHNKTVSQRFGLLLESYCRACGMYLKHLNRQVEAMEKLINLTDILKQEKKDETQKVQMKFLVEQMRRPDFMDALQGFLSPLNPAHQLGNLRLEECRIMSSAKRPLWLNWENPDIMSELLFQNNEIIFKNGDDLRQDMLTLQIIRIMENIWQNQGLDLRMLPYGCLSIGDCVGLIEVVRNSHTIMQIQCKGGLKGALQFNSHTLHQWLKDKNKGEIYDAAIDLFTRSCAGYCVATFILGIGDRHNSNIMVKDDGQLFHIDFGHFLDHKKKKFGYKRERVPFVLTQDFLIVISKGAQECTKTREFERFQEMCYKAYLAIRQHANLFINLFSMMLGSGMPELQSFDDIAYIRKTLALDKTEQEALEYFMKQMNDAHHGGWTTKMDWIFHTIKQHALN
Short version: log10 scale, IC50, nM.

{"COMPOUND": "Nc1ncc(-c2ccc3ncc(-c4ccc(C(=O)NCCCN5CCOCC5)c(F)c4)n3n2)cc1C(F)(F)F", "log10(IC50)": 1.38}
{"COMPOUND": "NCCCOc1ccc(-c2cnc3ccc(-c4cnc(N)c(C(F)(F)F)c4)nn23)cc1OC(F)(F)F", "log10(IC50)": 2.67}
{"COMPOUND": "Nc1ccc(-c2cnc3ccc(-c4ccc(OCCCNC(=O)C5CC5)cc4)nn23)cn1", "log10(IC50)": 2.35}
{"COMPOUND": "COc1cc(-c2cnc3ccc(-c4cnc(N)c(C(F)(F)F)c4)nn23)ccc1C(=O)NCCCN1CCOCC1", "log10(IC50)": 1.41}
{"COMPOUND": "Nc1ncc(-c2ccc3ncc(-c4ccc(CN5CCC(C(=O)N6CCCC6)CC5)cc4)n3n2)cc1C(F)(F)F", "log10(IC50)": 1.08}

Given `CC(=O)N1CCN(C(=O)c2ccc(-c3cnc4ccc(-c5cnc(N)c(C(F)(F)F)c5)nn34)cc2)CC1` , state its recorded log10(IC50). 1.26

Subsequent entry: `O=C1CCCN1CCOc1ccc(-c2ccc3ncc(-c4cnc5[nH]ccc5c4)n3n2)cc1F` 2.70

How about `CCN(CC)CCn1cnc2cc(-c3cnc4ccc(-c5cnc(N)c(C(F)(F)F)c5)nn34)cnc21` ? 1.28

Let us now turn to `Nc1ncc(-c2ccc3ncc(-c4ccc(C(=O)NCCCN5CCOCC5)cc4)n3n2)cc1C(F)(F)F` 1.32

Try the molecule `c1cc2cc(-c3cnc4ccc(-c5ccc6c(c5)OCO6)nn34)cnc2[nH]1` 2.90

Another molecule to look at: `Nc1ncc(-c2ccc3ncc(-c4ccc(C(=O)N5CCN(CCO)CC5)cc4)n3n2)cc1C(F)(F)F` 1.99

Now give it for `COc1cc(-c2ccc3ncc(-c4cnc(N)c(C(F)(F)F)c4)n3n2)ccc1OCCNC(=O)C1CC1` too. 2.31

Follow-up entry: `Nc1ncc(-c2ccc3ncc(-c4ccc(S(=O)(=O)NCCN5CCOCC5)cc4)n3n2)cc1C(F)(F)F` 1.26

Now give it for `CC(C)(C)OC(=O)NCCn1cc(-c2ccc3ncc(-c4cnc(N)c(C(F)(F)F)c4)n3n2)ccc1=O` too. 1.70

Can you handle `Nc1cnc(-c2cnc3ccc(-c4cnc(N)c(C(F)(F)F)c4)nn23)cn1` next? 0.90

# iterate: `CC(C)S(=O)(=O)c1ccc(-c2cnc3ccc(-c4cnc(N)c(C(F)(F)F)c4)nn23)cc1` 1.45

// same read-out, input: `Nc1ncc(-c2cnc3ccc(-c4ccc(OCC5(NC(=O)C6CC6)COC5)cc4)nn23)cc1C(F)(F)F` 1.73

Query `Nc1ncc(-c2ccc3ncc(-c4cnc5c(ccn5CCN5CCOCC5)c4)n3n2)cc1C(F)(F)F` next 1.82
